Target: Probable G-protein coupled receptor 139 (Homo sapiens, UniProt Q6DWJ6)
Sequence (Q6DWJ6 whole entry): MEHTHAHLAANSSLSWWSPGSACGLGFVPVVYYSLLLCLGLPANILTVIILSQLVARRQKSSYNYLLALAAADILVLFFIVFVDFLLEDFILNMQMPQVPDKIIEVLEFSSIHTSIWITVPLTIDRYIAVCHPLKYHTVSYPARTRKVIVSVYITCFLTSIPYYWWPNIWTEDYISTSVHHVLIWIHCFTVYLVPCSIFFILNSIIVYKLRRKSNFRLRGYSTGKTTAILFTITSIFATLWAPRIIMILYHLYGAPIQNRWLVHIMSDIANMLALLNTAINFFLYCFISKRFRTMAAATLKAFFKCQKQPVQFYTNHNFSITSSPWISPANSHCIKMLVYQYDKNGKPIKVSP
Test: Agonist activity at human GPR139 expressed in CHO-K1 cells assessed as increase in calcium flux by calcium 5 dye based FLIPR assay
Type: functional, cell-based
Conditions: cho-k1
readout-label: EC50 (nM)
I only need the number, in nM, no unit after it.

Worked cases, answers included:
INSERT INTO measurements (sample_smiles, readout_label, numeric_value) VALUES
  ('Cc1cc([C@H](C)NC(=O)Cn2nc3cccnn3c2=O)ccc1Cl', 'EC50', 1),
  ('C[C@H](NC(=O)Cn1nc2ccccn2c1=O)c1ccc(C(F)(F)F)cc1', 'EC50', 1),
  ('CC(C)Oc1ccc([C@H](C)NC(=O)Cn2nc3ccccn3c2=O)cc1', 'EC50', 10),
  ('COC1CCN(c2ccn3c(=O)n(CC(=O)N[C@@H](C)c4ccc(OC(F)(F)F)cc4)nc3c2)CC1', 'EC50', 1);

In the following, a different molecule is considered.
Requested read-out EC50, target or system Probable G-protein coupled receptor 139 (Homo sapiens, UniProt Q6DWJ6), entry Cc1cc(Cl)ccc1[C@H](C)NC(=O)Cn1nc2ncccn2c1=O
1
